Readout Label: IC50 (µM)
Field: numeric (µM). Do not append units.

Query the reported IC50 for Butyrylcholinesterase (Rattus norvegicus, UniProt Q9JKC1); item: C#CCN1CCN(Cc2ccc(OC(=O)N(C)C)c3ncccc23)CC1 42.6

Data credit: ChEMBL document CHEMBL1137772
